TARGET_DESC: human NAMPT (Homo sapiens, UniProt P43490)
Sequence (P43490 whole entry): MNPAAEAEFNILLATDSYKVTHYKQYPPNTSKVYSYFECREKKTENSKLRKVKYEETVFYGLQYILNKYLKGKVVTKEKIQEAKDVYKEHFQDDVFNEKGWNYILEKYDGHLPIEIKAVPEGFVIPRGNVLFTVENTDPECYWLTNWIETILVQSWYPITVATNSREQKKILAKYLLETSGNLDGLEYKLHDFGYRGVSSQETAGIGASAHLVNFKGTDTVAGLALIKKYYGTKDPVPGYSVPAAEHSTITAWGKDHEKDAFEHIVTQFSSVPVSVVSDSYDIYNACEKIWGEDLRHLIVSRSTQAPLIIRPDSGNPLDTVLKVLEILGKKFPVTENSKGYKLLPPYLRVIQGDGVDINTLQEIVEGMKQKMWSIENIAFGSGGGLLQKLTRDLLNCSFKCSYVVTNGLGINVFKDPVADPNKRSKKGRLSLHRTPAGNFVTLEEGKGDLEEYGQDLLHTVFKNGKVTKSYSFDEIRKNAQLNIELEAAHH
PROCEDURE_TEXT: Human recombinant enzyme assay (NMN fluorescence biochemical assay, activation of NAMPT)
TEST_PARAMETERS: Table A; human recombinant NAMPT, NMN formation, 60 min
Tag: true if measured AC1.4 Human is not below 2 µM, false if it is.

INSERT INTO measurements (compound, assigned_class) VALUES
  ('O=C(CCCCCNC(=O)NCc1ccc(Cl)cc1)Nc1ccccc1F [Compound 272]', 'false'),
  ('Cc1ccc(C(=O)N2CC3(CC(NC(=O)NCc4ccc(F)cc4)C3)C2)cc1 [Compound 207]', 'true'),
  ('O=C(NCc1ccc(Cl)cc1)NC1CC2(C1)CC(NC(=O)c1cccnc1)C2 (centres unmarked) [Compound 184]', 'true'),
  ('O=C(NCc1ccc(Cl)cc1)NC1CC2(CC(CNC(=O)C3CCCC3)C2)C1 (centres unmarked) [Compound 251]', 'true');

From here, focus on the item given below.
Incoming: Is the recorded value of AC1.4 Human equal to or greater than 2 µM for this compound? O=C(NCCCCC1CCN(c2ccncc2)CC1)NCc1ccc(Cl)cc1 [Compound 308]
Outgoing: true
